Values compiled from patent US9216968B2.

biological target: human mPGES-1 (Homo sapiens (Human))
pIC50: −log10 of the molar value. Counter-ions that a name gives are not always drawn.
readout_kind: pIC50

Sample records with pIC50:
| compound | pIC50 |
| --- | --- |
| CCN(CC)CCNc1nc2c(C(=O)Nc3cccc(Cl)c3C)cc(NC(=O)c3ccccc3C(F)(F)F)cc2[nH]1 [Example 151, hydrochloride] | 7.94 |
| Cc1c(Cl)cccc1NC(=O)c1cc(NC(=O)c2ccccc2C(F)(F)F)cc2[nH]c(N3CC[C@H](N(C)C)C3)nc12 [Example 149, dihydrochloride] | 9.00 |
| Cc1c(Cl)cccc1NC(=O)c1cc(NC(=O)c2ccccc2C(F)(F)F)cc2[nH]c(NCC(=O)O)nc12 [Example 161, hydrochloride] | 8.42 |
| COCc1nc2c(C(=O)NCc3ccc(C)cc3)cc(NC(=O)c3ccccc3C(F)(F)F)cc2[nH]1 [Example 25, hydrochloride] | 7.05 |
| COCc1nc2c(C(=O)Nc3nc4ccccc4s3)cc(NC(=O)c3ccccc3C(F)(F)F)cc2[nH]1 [Example 225, hydrochloride] | 7.81 |
| Cc1c(Cl)cccc1NC(=O)c1cc(NC(=O)c2ccccc2C(F)(F)F)cc2[nH]c(N[C@H](CO)C(C)C)nc12 [Example 170, hydrochloride] | 8.49 |

A: COCc1nc2c(C(=O)Nc3cccc(Cl)c3C)cc(NC(=O)c3c(F)ccc(F)c3Cl)cc2[nH]1 [Example 101, hydrochloride]
B: COCc1nc2c(C(=O)Nc3ccc(C)cc3)cc(NC(=O)c3ccccc3C(F)(F)F)cc2[nH]1 [Example 23, hydrochloride]
C: Cc1c(Cl)cccc1NC(=O)c1cc(NC(=O)c2ccccc2C(F)(F)F)cc2[nH]c(NCCN(C)C)nc12 [Example 147, hydrochloride]
D: Cc1c(Cl)cccc1NC(=O)c1cc(NC(=O)c2ccccc2C(F)(F)F)cc2[nH]c(S(C)(=O)=O)nc12
E: COCCCNc1nc2c(C(=O)Nc3cccc(Cl)c3C)cc(NC(=O)c3ccccc3C(F)(F)F)cc2[nH]1 [Example 174, hydrochloride]
Arrange the 5 compounds from largest to smallest pIC50. Put the labels in the order asked and list them.
D, E, B, C, A
(D: 8.96, E: 8.70, B: 8.14, C: 7.80, A: 7.11)

---

Where a name gives a salt, the structure may show the parent alone.
Reported IC50 values, human mPGES-1 (Homo sapiens (Human)).
readout_kind: IC50 (nM)

| compound | test_system | IC50 [nM] |
| --- | --- | --- |
| Cc1c(Cl)cccc1NC(=O)c1cc(NC(=O)c2ccccc2C(F)(F)F)cc2c1nc(NCC(C)(C)CO)n2C [Example 162, hydrochloride] | human mPGES-1 (Homo sapiens (Human)) | 23.8 |

I: Cc1c(Cl)cccc1NC(=O)c1cc(NC(=O)c2ccccc2C(F)(F)F)cc2[nH]c([C@H]3CCC(=O)N3)nc12 [Example 131, hydrochloride]
II: Cc1c(Cl)cccc1NC(=O)c1cc(NC(=O)c2ccccc2C(F)(F)F)cc2[nH]c(NCCOC(C)C)nc12 [Example 175, hydrochloride]
III: Cc1c(Cl)cccc1NC(=O)c1cc(NC(=O)c2ccccc2C(F)(F)F)cc2[nH]c(NCCN(C(C)C)C(C)C)nc12 [Example 155, hydrochloride]
IV: Cc1c(Cl)cccc1NC(=O)c1cc(NC(=O)c2ccccc2C(F)(F)F)cc2[nH]c(CC(=O)N(C)C)nc12 [Example 133, hydrochloride]
V: COCc1nc2c(C(=O)NCc3ccccc3Cl)cc(NC(=O)c3ccccc3C(F)(F)F)cc2n1C [Example 91]
# ascending order, key=IC50 Put the labels in the order asked and list them.
II, IV, I, III, V
(II: 3.6 nM, IV: 7 nM, I: 32.8 nM, III: 101 nM, V: 327 nM)

---

Where a name gives a salt, the structure may show the parent alone.
Reported IC50 values, human mPGES-1 (Homo sapiens (Human)).
readout_kind: IC50 (nM)

Sample records with IC50:
| compound | experimental_result |
| --- | --- |
| Cc1c(Cl)cccc1NC(=O)c1cc(NC(=O)c2ccccc2C(F)(F)F)cc2[nH]c(CC(C)(C)C)nc12 [Example 82, hydrochloride] | 0.4 |
| COCc1nc2c(C(=O)Nc3cccc4nsnc34)cc(NC(=O)c3ccccc3C(F)(F)F)cc2[nH]1 [Example 221, hydrochloride] | 2.2 |
| Cc1c(Cl)cccc1NC(=O)c1cc(NC(=O)c2ccccc2C(F)(F)F)cc2[nH]c([S+](C)[O-])nc12 (stereo not shown) [Example 181] | 1.1 |
| COCc1nc2c(C(=O)Nc3cccc(Cl)c3C)cc(NC(=O)c3cccnc3Cl)cc2[nH]1 [Example 96, hydrochloride] | 34 |

A: Cc1c(Cl)cccc1NC(=O)c1cc(NC(=O)c2ccccc2C(F)(F)F)cc2[nH]c(N3CCCC3)nc12 [Example 164, hydrochloride]
B: Cc1c(Cl)cccc1NC(=O)c1cc(NC(=O)c2ccccc2C(F)(F)F)cc2[nH]c(NC[C@@H]3CCCO3)nc12 [Example 168, hydrochloride]
Given the listed items, does A or B have the lesser reported IC50? When you have decided, please share the label of that item.
A

1: CSCCNc1nc2c(C(=O)Nc3cccc(Cl)c3C)cc(NC(=O)c3ccccc3C(F)(F)F)cc2[nH]1 [Example 178, hydrochloride]
2: Cc1c(Cl)cccc1NC(=O)c1cc(NC(=O)c2ccccc2C(F)(F)F)cc2[nH]c(C3CCCC3)nc12 [Example 124, hydrochloride]
3: Cc1c(Cl)cccc1NC(=O)c1cc(NC(=O)c2ccccc2C(F)(F)F)cc2[nH]c(NCCO)nc12 [Example 137, hydrochloride]
# ascending order, key=IC50 Put the labels in the order asked and list them.
1, 2, 3
(1: 1.2 nM, 2: 2.2 nM, 3: 3.3 nM)

I: COCc1nc2c(C(=O)Nc3nc4cc(Cl)ccc4o3)cc(NC(=O)c3ccccc3C(F)(F)F)cc2[nH]1 [Example 228, hydrochloride]
II: Cc1c(Cl)cccc1NC(=O)c1cc(NC(=O)c2c(F)cccc2Cl)cc2[nH]c([C@H]3CCCO3)nc12 [Example 127, hydrochloride]
III: COCc1nc2c(C(=O)Nc3cccc(Cl)c3C)cc(NC(=O)c3cc(CCC(C)(C)O)ccc3Cl)cc2[nH]1 [Example 119, hydrochloride]
# ascending order, key=IC50 Put the labels in the order asked and list them.
I, II, III

---

target: UniProt O14684
Structures can show the parent of a compound that is named as a salt.
readout_kind: IC50 (nM)

| compound | test_system | IC50, nM |
| --- | --- | --- |
| Cc1c(Cl)cccc1NC(=O)c1cc(NC(=O)c2ccccc2C(F)(F)F)cc2[nH]c(NC[C@H]3CCCO3)nc12 [Example 169, hydrochloride] | UniProt O14684 | 2.4 |
| COCc1nc2c(C(=O)Nc3cccc(Cl)c3C)cc(NC(=O)c3ccc(C(F)(F)F)cc3C(F)(F)F)cc2[nH]1 [Example 111, hydrochloride] | UniProt O14684 | 765 |
| Cc1c(Cl)cccc1NC(=O)c1cc(NC(=O)c2ccccc2C(F)(F)F)cc2[nH]c(N[C@H](CO)C(C)(C)C)nc12 [Example 172, hydrochloride] | UniProt O14684 | 4.5 |
| COCC(C)(C)CNc1nc2c(C(=O)Nc3cccc(Cl)c3C)cc(NC(=O)c3ccccc3C(F)(F)F)cc2[nH]1 [Example 163, hydrochloride] | UniProt O14684 | 5.9 |
| CC(C)Cc1nc2c(C(=O)NCc3ccccc3C(F)(F)F)cc(NC(=O)c3ccccc3C(F)(F)F)cc2[nH]1 [Example 60, hydrochloride] | UniProt O14684 | 19.8 |

1: CCOCCOc1ccc(Cl)c(C(=O)Nc2cc(C(=O)Nc3cccc(Cl)c3C)c3nc(COC)[nH]c3c2)c1 [Example 115, hydrochloride]
2: COCc1nc2c(C(=O)Nc3cccc(Cl)c3C)cc(NC(=O)c3cc(CCCOC(C)(C)C)ccc3Cl)cc2[nH]1 [Example 118, hydrochloride]
Given the listed items, does 1 or 2 have the lesser reported IC50? When you have decided, please share the label of that item.
2
(2: 7.3 nM, 1: 11.5 nM)

---

molecular target: human mPGES-1 (Homo sapiens (Human), UniProt O14684)
Sequence (O14684 whole entry): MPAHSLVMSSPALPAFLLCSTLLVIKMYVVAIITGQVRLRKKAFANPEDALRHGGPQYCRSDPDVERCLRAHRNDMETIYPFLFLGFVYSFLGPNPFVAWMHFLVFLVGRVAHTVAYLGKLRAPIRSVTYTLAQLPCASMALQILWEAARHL
Counter-ions that a name gives are not always drawn.
readout_kind: IC50 (nM)

Sample records with IC50:
| compound | experimental_result |
| --- | --- |
| COCc1nc2c(C(=O)Nc3cccc(Cl)c3C)cc(NC(=O)c3ccccc3Cl)cc2[nH]1 [Example 95, hydrochloride] | 5.1 |
| COCc1nc2c(C(=O)Nc3cccc4cccnc34)cc(NC(=O)c3ccccc3C(F)(F)F)cc2[nH]1 [Example 230, hydrochloride] | 1.9 |
| Cc1c(Cl)cccc1NC(=O)c1cc(NC(=O)c2c(F)cccc2Cl)cc2[nH]c(NC[C@H]3CCCO3)nc12 [Example 199, hydrochloride] | 9.7 |

P: COCCc1nc2c(C(=O)Nc3ccc(C)c(Cl)c3)cc(NC(=O)c3cc(Cl)ccc3Cl)cc2[nH]1 [Example 213, hydrochloride]
Q: Cc1nc2c(C(=O)NCc3ccccc3C(F)(F)F)cc(NC(=O)c3ccccc3C(F)(F)F)cc2[nH]1 [Example 12, hydrochloride]
R: CC(=O)N1CC(c2nc3c(C(=O)Nc4cccc(Cl)c4C)cc(NC(=O)c4ccccc4C(F)(F)F)cc3[nH]2)C1 [Example 68, hydrochloride]
# ascending order, key=IC50 Put the labels in the order asked and list them.
P, Q, R
(P: 0.9 nM, Q: 7.1 nM, R: 63.4 nM)

P: Cc1c(Cl)cccc1NC(=O)c1cc(NC(=O)c2ccccc2C(F)(F)F)cc2[nH]c(N3CCN(C)CC3)nc12 [Example 143, dihydrochloride]
Q: Cc1c(Cl)cccc1NC(=O)c1cc(NC(=O)c2ccccc2C(F)(F)F)cc2[nH]c(NCC(C)(C)C)nc12 [Example 140, hydrochloride]
R: COCc1nc2c(C(=O)Nc3cccc4ccccc34)cc(NC(=O)c3ccccc3C(F)(F)F)cc2[nH]1 [Example 219, hydrochloride]
S: COCc1nc2c(C(=O)Nc3cccc(Cl)c3C)cc(NC(=O)c3cc(F)ccc3Cl)cc2[nH]1 [Example 94, hydrochloride]
# ascending order, key=IC50 Put the labels in the order asked and list them.
Q, R, P, S

A: Cc1c(Cl)cccc1NC(=O)c1cc(NC(=O)c2ccccc2C(F)(F)F)cc2[nH]c(N[C@@H](CO)C(C)C)nc12 [Example 171, hydrochloride]
B: Cc1c(Cl)cccc1NC(=O)c1cc(NC(=O)c2ccccc2C(F)(F)F)cc2[nH]c(NCCCN(C)C)nc12 [Example 153, hydrochloride]
Consider A and B . Which of these has its IC50 at a higher number? When you have decided, please share the label of that item.
B
